protocol.summary: SK-BR-3 cell growth inhibitors, pilot screen, 24 h, human (AID 572);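 also: compound exposure lasted between 18 and 24 h rather than exactly 24 h; 100% = carrier-treated control wells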
experimental.parameters: SK-BR-3 viability, CellTiter-Glo luminescence, at 10 µM, stronger effect = lower value
Catalogue of compounds with associated viability

| compound | viability [%] |
| --- | --- |
| O=c1c2cc(N3CCOCC3)ccc2[nH]c(=S)n1CCCN1CCCCC1 | 83.5 |
| CCNC(=O)CC1C(=O)N(c2ccccc2)C(=O)N1Cc1ccc(OC)cc1 (configuration not stated) | 94.5 |
| CC(=O)c1cccc(NC(=O)N2C3CCC2CC(O)(c2cccnc2)C3)c1 (configuration not stated) | 102 |
| COc1ccc2cc(CN(CCO)C(=O)c3ccccc3F)c(=O)[nH]c2c1 | 106 |
| Cc1cc2oc(=O)cc(CN3CCN(Cc4ccc5c(c4)OCO5)CC3)c2cc1C | 96.5 |
| CC1CCN(S(=O)(=O)c2ccc3[nH]cc(C(=O)NCCN4CCOCC4)c(=O)c3c2)CC1 | 108 |
| CCn1cc(C2=NOC(C(=O)Nc3cc(C)nn3-c3ccccc3)C2)c(C)n1 (configuration not stated) | 89.5 |
| Cc1nn(-c2ccccc2)c2sc(C(=O)N3CCOCC3)cc12 | 88.5 |
| CCOc1ccc(-c2nnc(N)s2)cc1 | 95 |
| O=C(Nc1cccc(Cl)c1)N1CCN(c2ncccn2)CC1 | 100 |
| CCN1CCN(Cc2ccc(NC(=O)Nc3ccc(SC)cc3)cc2)CC1 | 97.5 |
| O=C(O)Cn1cc(C(=O)c2ccco2)c2ccccc21 | 95 |
| COC(=O)C1(C)NC(c2ccco2)C2C(=O)N(c3ccc(C)cc3)C(=O)C21 (configuration not stated) | 106 |
| CCOC(=O)N1CCC2(O)CCCCC2C1c1ccc(F)cc1 (configuration not stated) | 102 |
| CC(NC(=O)c1ccc(F)cc1)C(c1cccs1)N1CCN(C)CC1 (configuration not stated) | 90.5 |
| Cc1ccccc1-n1c(=O)cc(N2CCN(C(=O)c3ccco3)CC2)[nH]c1=O | 86 |
| O=C(NCCc1ccccc1)C1CCN(S(=O)(=O)N2CCC3(CC2)OCCO3)CC1 | 102 |
| CCCN1CCC(NC(=O)Nc2ccc(OC)c(OC)c2)CC1 | 124 |
| CCN1CCN(C(c2ccc(F)cc2)c2nnnn2Cc2cccs2)CC1 (configuration not stated) | 83 |
| Cn1nnnc1SCSc1nnnn1C | 84 |
| CCC(=O)Nc1ccc(NC(=O)c2cccc(OC)c2)nc1 | 94 |
| COCCOC(=O)c1c(C)nc(SCC(=O)Nc2ccc(OC)cc2)c(C#N)c1-c1ccco1 | 108 |

---

protocol.summary: reversal of MRP1-mediated doxorubicin resistance, pilot screen, H69AR cells, doxorubicin co-treatment (AID 601)
experimental.parameters: H69AR cells + 2 uM doxorubicin, CellTiter-Glo, 72 h; measured here: viability with 2 uM doxorubicin; at 10 µM; stronger effect = lower value
Catalogue of compounds with associated viability
readout.name: viability

| query.smiles | readout.name | result |
| --- | --- | --- |
| Nc1nc(C2C(=O)CCCC2=O)cs1 | viability | 97.6% |
| CCC(NC(=O)Nc1cc(OC)c(OC)c(OC)c1)(C(F)(F)F)C(F)(F)F | viability | 101% |
| Cc1nc(CNS(=O)(=O)c2cc(C)c(C)cc2C)cs1 | viability | 89.9% |
| CCNC(=O)N(C(=O)NCC)n1c(C)nnc1C | viability | 85.3% |
